- TEST DESCRIPTION: yeast display, Sf9 membrane polyspecificity reagent, FACS + sequencing; frameworks hold sequencing errors
ASSAY READOUT: polyreactivity (PSR sort gate)

query_sequence=QVQLVESGGGLVQAGGSLRLSCAASGIIFQRNDMGWYRQAHGKERELVANIRDGGITYADSVKGRFTISRDNAKNTVYLKMNSLKPEDTAVYYCARDDTSPGYGDQSSNASNYYWGQGTQVTVSS value="low polyreactivity"
query_sequence=QVQLVESGGGLVQAGGSLRLSCAASGSTFGYYTMGWYRQAPGKERELVAAITWSGGSTYYADSVKGRFTISRDNAKNTVYLQMNSLKPEDTAVYYCADDDYWTPFGYWGQGTQVTVSS value="low polyreactivity"
query_sequence=QVQLVESGGGLVQAGGSLRLSCAASGSIFRTYAMGWYRQAPGKEREWVAAISSTGGRTYYADSVKGRFTISRDNAKNTVYLQMNSLKPEDTAVYYCAKRYRYITYRYDYWGQGTQVTVSS value="high polyreactivity"
query_sequence=QVQLVESGGGLVQAGGSLRLSCAASGRTFWVYAMGWYRQAPGKERELVASISWSVGSTYYADSVKGRFTISRDNAKNTVYLQMNSLKPEDTAVYYCNKTTLLTVEYDYWGQGSQVTVSS value="low polyreactivity"
query_sequence=QVQLQESGDGLVQADGSLRLSCAASGYISGYYYMGWYRQQPGKERELVAGIDAFGSSTNYADCVKGRFTISRDNGKNTVYLQMISPKPDDTAVYYCAAVYDDWDYHWYWGQGTQVTVSS value="low polyreactivity"
query_sequence=QVQLQESGGGLVQAGGSLRLSCAASGSIFKVVDMGLYRQAPAKEREFVATIGEGGNTYYADSVKGRFTISRDNAKNTVYLQMHSLKPEDTAVYFYAVVLGTSYRYTYWGQGTQVTVSS value="low polyreactivity"
query_sequence=QVQLVESGGGLVQAGGSLRLSCAASGFIFRAYTMGWYRQAPGKERELVAGITSGGSTYYADSVKGRFTISRDNAKNTVYLQMNSLKPDDTAVYYCATYYRRWTPIPYEYWGQGTQVTVSS value="high polyreactivity"
query_sequence=QVQLVESGGGLVQAGGSLRLSCAASGSTFTSYAMGWYRQAPGKERELVAAISWRGGSTYYADSVKGRFTISRDNAKNTVYLQMNSLKPEDTAVYYCNAVVRQPHDLDYWGQGTQVTVSS value="high polyreactivity"
query_sequence=QVQLVESGGGLVQAGGSLRLSCAASGNNFYVNVMGSYRQAPGKEMEFVAAISTRGVSTSYADSVKGRFTISRDNAKYTVYLQMNSLKPEDTAVYYCAASFRRPQPKGTTYGYLGQGTQVTVSS value="high polyreactivity"
query_sequence=QVQLVESGGGLVQAGGSLRLSCAASGSIFRYYVMGWYRQAPGKERELVAAISGGSTYYADSVKGRFTISRDNAKNTVYLQMNSLKPEDTAVYYCAAEQWSTGYYYWGQGTQVTVSS value="high polyreactivity"
query_sequence=QVQLVESGGGLVQAGGILRLSCAASGFIFALNAMGWYRQAPGKERELVATIDSTSGSTYYADSVKGRFTISRDNAKNTVYLQMNSLKPEDTAVYYCAVVHAQSAPMDYWGQGTQVTVSS value="low polyreactivity"
query_sequence=QVQLVESGGGLVQAGGSLRLSCAASGSTFRYYAMGWYRQAPGKERELVAAITWSGGRTTYADSVKGRFTISRDNAKNTVYLQMNSLKPEDTAVYYCAAEWHYFVTMYYWGQGTQVTVSS value="low polyreactivity"

The reported measurements were obtained from the nanobody polyreactivity screen of Harvey et al. (2022).
